B1: HEEH_KT_rd6_3632 (parent)
chain: DAEELIELVERALKEGREIILLGVRITSEEAGKWFIEWIRRFL

# Variants of: B1
# experiment_description: folding stability dG (cDNA display proteolysis); higher = more stable
# measurement_setup: PBS, room temperature

{"variant_descriptor": "A31M", "folding stability dG, kcal/mol": 4.08}
{"variant_descriptor": "E29Q", "folding stability dG, kcal/mol": 3.97}
{"variant_descriptor": "W38E", "folding stability dG, kcal/mol": 2.62}
{"variant_descriptor": "I39P", "folding stability dG, kcal/mol": 2.22}
{"variant_descriptor": "A12R", "folding stability dG, kcal/mol": 3.17}
{"variant_descriptor": "W34D", "folding stability dG, kcal/mol": 3.39}
{"variant_descriptor": "E7G", "folding stability dG, kcal/mol": 3.89}
{"variant_descriptor": "W38D", "folding stability dG, kcal/mol": 2}
{"variant_descriptor": "I20G", "folding stability dG, kcal/mol": 2.71}
{"variant_descriptor": "L5I", "folding stability dG, kcal/mol": 3.44}
{"variant_descriptor": "W34N", "folding stability dG, kcal/mol": 3.48}
